test system: SNB-19 CNS; test: NCI tumour cell line growth inhibition, 48 h
value-type: GI50

Return reported GI50 values for all items listed beneath this line.
1. COc1ccc(-c2csc(N(C(=O)N3CCN(c4cc5c(cc4F)c(=O)c(C(=O)O)cn5C4CC4)CC3)c3ccccc3)n2)cc1
2. Cc1ccccc1[P+](Cc1ccccc1)(c1ccccc1)c1ccccc1
3. COc1cc2c(c(OC)c1)C1c3ccccc3NC(=O)N1CC2 (stereo not given)
4. Nc1nc2c(c3ncncc13)C(c1cccc(C(F)(F)F)c1)Cc1ncncc1-2 (stereo not given)
5. COC(C(=O)[O][Ge]([CH3])([CH3])[CH3])c1ccccc1 (stereo not given)

Response line:
1: 1.11 µM; 2: 2.8 µM; 3: 7 µM; 4: 4.88 µM; 5: > 100 µM
